Test system: KM12 colon
assay: NCI-60 one-dose screen, 48 h (100 = growth as untreated, 0 = no growth, -100 = all killed)
setup_conditions: 10 µM unless noted
About 83,000 compounds went through this panel and 20% of them were active in at least one assay; those are over-represented in the sample as a whole. Calls of active or inactive are those of the source. The calls were made as follows: active = growth percent below 10; inactive = the rest.
quantity_kind: growth

INSERT INTO measurements (compound, val) VALUES
  ('CCCCn1c(NC(C)=O)c(S(=O)(=O)c2ccccc2)c2nc3ccccc3nc21', '103% (inactive)'),
  ('O=c1oc2c(cnc3ccccc32)cc1-c1cccc(Cl)c1', '110% (inactive)'),
  ('COc1cc([C@@H](CCO)C[C@H](C)c2ccc3ccccc3c2)cc(OC)c1OC', '26.3% (inactive)'),
  ('CN1CCN(c2ccc(NC3=CC(=O)c4ncncc4C3=O)cc2)CC1', '-75.9% (active)'),
  ('CCCCCc1ccc(S(=O)(=O)Nc2cc(-c3csc(NC(C)=O)n3)ccc2N2CCN(C)CC2)cc1', '74.1% (inactive)'),
  ('C#COc1cccc(Nc2ncnc3cc(NC(=O)[C@H](C)Cl)ccc23)c1', '17.8% [6.25 µM] (inactive)'),
  ('Cc1ccc(-c2csc(NC(=O)CSc3nc(N)cc(N)n3)n2)cc1', '77.5% (inactive)'),
  ('N#Cc1ccccc1-c1ccc(CN2C(=O)S/C(=C\c3ccc(Br)cc3)C2=O)cc1', '98.9% (inactive)'),
  ('CC[C@H](Nc1nc(N)nc(C)c1C#N)c1nc2cccc(CN(C)c3ncc(C(=O)NO)cn3)c2c(=O)n1-c1ccccc1', '16.4% (inactive)'),
  ('Clc1cccc(C2Cc3cnccc3-c3[nH]c4ccncc4c32)c1 (stereo not given)', '44.3% (inactive)');

###

Tested on: MALME-3M melanoma
assay: NCI-60 one-dose screen, 48 h (100 = growth as untreated, 0 = no growth, -100 = all killed)
setup_conditions: 10 µM unless noted
About 83,000 compounds went through this panel and 20% of them were active in at least one assay; those are over-represented in the sample as a whole. Activity calls are given as the source filed them. Rule for the calls: active = growth percent below 10; inactive = the rest.
quantity_kind: growth

INSERT INTO results (compound, val) VALUES
  ('O=c1ccc2ccc(OCCN3CCCCC3)cc2o1', '107% (inactive)'),
  ('O=S(=O)(Nc1cc(Sc2nc3ccccc3s2)c(O)c2ccccc12)c1ccc2ccccc2c1', '102% (inactive)'),
  ('Cc1cc(=O)n(C(=S)Nc2ccc(Cl)cc2)c2cc(O)ccc12', '91.5% (inactive)'),
  ('CC(O)Cc1c[nH]c(=O)[nH]c1=O (centres undefined)', '142% (inactive)'),
  ('COc1cc2c(c(OC)c1OC)C(=O)CC(c1cccc(C(=O)Nc3ccc(C#N)cc3)c1)O2 (centres undefined)', '96.9% (inactive)'),
  ('N#Cc1c(-c2ccccc2)cc(-c2ccccc2)n(CCCCC(=O)NO)c1=O', '11.5% (inactive)'),
  ('CNC(=O)c1cc(Oc2ccc3c(c2)sc2nc(-c4cc(C(F)(F)F)cc(C(F)(F)F)c4)cn23)ccn1', '47.1% (inactive)'),
  ('CN(C)c1ccc(/C=C2\C=C(c3nc4ccccc4s3)OC2=O)cc1', '98.3% (inactive)'),
  ('CN(C)CCC(=O)C1CC1', '102% (inactive)'),
  ('c1ccc(Nc2nc3c(s2)CCc2c[nH]cc2-3)nc1', '92.5% (inactive)'),
  ('COc1ccc(C(=O)C/C(=C\c2ccc(O)c(OC)c2)C(=O)NN)cc1', '93.4% (inactive)'),
  ('CCOC(=O)CC1CSC(N/N=C/c2ccc(F)c(Br)c2)=N1 (centres undefined)', '101% (inactive)'),
  ('O=C1C=CC2(O)OC/C(=C\c3ccccc3)C(O)=C2C1=O (centres undefined)', '-37.8% (active)'),
  ('COCCn1cc(-c2csc(-c3c[nH]c4ccccc34)n2)c2cccnc21', '52.3% (inactive)'),
  ('CC1(C)CC[C@]23CC[C@]4(C)[C@H](CC[C@@H]5[C@@]6(C)C/C(=C/O)C(=O)C(C)(C)[C@@H]6CC[C@]54C)[C@H]2[C@H]1OC3', '104% (inactive)'),
  ('O=c1oc2ccccc2cc1-c1nn(-c2ccccc2)cc1-c1nn[nH]n1', '90% (inactive)'),
  ('COc1cc(Cc2cc(-c3ccccc3)nn(Cc3ccccc3)c2=O)cc(OC)c1OC', '35.2% (inactive)'),
  ('COC(=O)c1c2c(c(C)[n+]([O-])c1C)C(=O)C(NCc1ccccc1)=CC2=O', '-77.8% (active)'),
  ('COc1cc(-c2ccc(-c3ccc(C(=N)N)cc3)s2)cc(OC)c1OC', '32.7% (inactive)'),
  ('CSc1nc2ccc(C)cc2cc1/C=C1/C=C(c2ccccc2)NC1=O', '40.4% (inactive)'),
  ('O=C(NC1CCC(Br)CC1)C1CCCC(S(=O)(=O)NC2CCCCC2)C1 (centres undefined)', '19.5% [25 µM] (inactive)'),
  ('CC(C)(C)OC(=O)CN1CCc2c(sc3ncnc(N4CCN(c5ccc(F)cc5)CC4)c23)C1', '90.6% (inactive)'),
  ('COc1ccc(Nc2ncc(I)c(NCCCNC(=O)C3CCC3)n2)cc1', '41% (inactive)'),
  ('CCOc1ccc(NC(=O)Nc2ccc(OCC)cc2)cc1', '100% (inactive)'),
  ('FC(F)(F)c1[nH]ncc1-c1nc2ccc3[nH]ncc3c2c2c1CCCC2', '8.51% (active)'),
  ('Cc1c(O)cc(-c2cnc(N/N=C/c3ccccc3)s2)c(O)c1C', '107% (inactive)'),
  ('C/C(=N\Nc1ccccc1)c1ccc(NC2=CC(=O)c3ccccc3C2=O)cc1', '-65% (active)'),
  ('CCN(CC)CCOc1ccc(C(=O)/C=C\c2ccc(Cl)cc2Cl)cc1', '42.4% (inactive)'),
  ('CCN1CCN(CCNc2nccc(-c3c(-c4ccc(F)c(O)c4)nc4occn34)n2)S1(=O)=O', '26.4% (inactive)'),
  ('O=C(O)c1cn(C2CC2)c2cc(N3CCN(C(=O)N4CCOCC4)CC3)c(F)cc2c1=O', '88.6% (inactive)'),
  ('Cc1ncc(C(=O)Nc2ccc(CN3CCN(C)CC3)c(C(F)(F)F)c2)cc1C#Cc1cnc(N)c2ccc(C#N)cc12', '-55.6% (active)'),
  ('CCOC(=O)C#Cc1c(C(=O)OCC)nnn1[C@@H]1O[C@H](COC)[C@@H](OC)[C@H]1OC', '25.8% (inactive)'),
  ('C/C(Cc1ccc(Cl)cc1)=C(\c1ccc(OCCN2CCCCCC2)cc1)c1ccc(OC(=O)c2ccccc2)cc1', '11.7% (inactive)'),
  ('N#Cc1ccc(O)c(C2=NCC(c3ccc(-c4ccccc4)cc3)O2)c1 (centres undefined)', '17.4% (inactive)'),
  ('COc1ccc(-c2nc3c(c(-c4ccc(Cl)cc4)nn3-c3ccccc3)c(-c3ccccc3)c2C#N)cc1', '103% (inactive)'),
  ('Brc1ccc(Nc2nc(Nc3cnc4ccccc4c3)c3[nH]cnc3n2)cc1', '105% (inactive)'),
  ('C=C(C)[C@@H]1CC[C@]2(COC3CCCCO3)CC[C@]3(C)[C@H](CC[C@@H]4[C@@]5(C)C=C(C=O)C(=O)C(C)(C)[C@@H]5CC[C@]43C)[C@@H]12 (some centres undefined)', '-75.4% (active)'),
  ('Cc1ccc2c(c1)nc(C)n2-c1ncnc2c1CC(C)c1cc(O)ccc1N2C (centres undefined)', '48.9% (inactive)'),
  ('COc1cc(/C=C/C(=O)N2CCN(C(=O)c3cc(OC)c(OC)c(OC)c3)CC2)ccc1OCCCOc1cc2c(cc1OC)C(=O)N1CCC[C@H]1C=N2', '-58.6% (active)');
